Catalogue of Emax values
- Tested on: IL-17A
- PROCEDURE_SUMMARY: IL-17A enzyme-linked immune quantitative assay in cytostim-activated human PBMC
- Assay type: cell-based
- CONDITION_INFO: 72 h; IL-17A in supernatant of human PBMC, 3 days after drug treatment
ENDPOINT_NAME: Emax (%)

INSERT INTO measurements (molecule, endpoint_name, value_units, assay_value) VALUES
  ('O=C(N[C@@H](CO)c1ccc(S(=O)(=O)CC2CC2)cc1)c1ccc2c(c1)cc(Cc1ccc(F)cc1C(F)(F)F)n2CCF [Example 14]', 'Emax', '%', 99),
  ('O=C(N[C@@H](CO)c1ccc(S(=O)(=O)NC2CC2)cc1)c1ccc2c(c1)cc(Cc1ccc(Cl)cc1C(F)(F)F)n2CCF [Example 12]', 'Emax', '%', 71),
  ('CCS(=O)(=O)c1ccc(C(CO)NC(=O)c2ccc3c(c2)cc(Cc2ccc(Cl)cc2C(F)(F)F)n3CCF)cc1 (centres unmarked) [Example 2]', 'Emax', '%', 82),
  ('CCS(=O)(=O)c1ccc([C@H](CO)NC(=O)c2ccc3c(c2)cc(Cc2ccc(Cl)cc2C(F)(F)F)n3C2CC2)cc1 [Example 11]', 'Emax', '%', 72),
  ('CCS(=O)(=O)c1ccc([C@H](COC)NC(=O)c2ccc3c(c2)cc(Cc2ccc(Cl)cc2C(F)(F)F)n3CCF)cc1 [Example 16]', 'Emax', '%', 99),
  ('CCS(=O)(=O)c1ccc([C@@H](CO)NC(=O)c2ccc3c(c2)cc(Cc2ccc(Cl)cc2C(F)(F)F)n3CCF)cc1 [Example 3]', 'Emax', '%', 136),
  ('O=C(N[C@@H](CO)c1ccc(S(=O)(=O)CC2CC2)cc1)c1ccc2c(c1)cc(Cc1ccc(Cl)cc1C(F)(F)F)n2CCF [Example 13]', 'Emax', '%', 65),
  ('CCS(=O)(=O)c1ccc([C@H](CO)NC(=O)c2ccc3c(c2)cc(Cc2ccc(Cl)cc2C(F)(F)F)n3CCF)cc1 [Example 4]', 'Emax', '%', 93);

* * *

- PROCEDURE_SUMMARY: Pharmacokinetics assay in mice after intragastrical administration
- Format: in vivo
- CONDITION_INFO: female, C57, mouse, plasma, po, 2 mg/kg, read-out: Half-life T1/2 (converted)
ENDPOINT_NAME: half-life (min)

INSERT INTO assay_data (structure_smiles, value_units, assay_value) VALUES
  ('CCS(=O)(=O)c1ccc([C@H](CO)NC(=O)c2ccc3c(c2)cc(Cc2ccc(Cl)cc2C(F)(F)F)n3CCF)cc1', 'min', 672);

* * *

- PROCEDURE_SUMMARY: Pharmacokinetics assay in mice after intragastrical administration
- Assay type: in vivo
- CONDITION_INFO: female, C57, mouse, plasma, po, 2 mg/kg, read-out: Clearance CLz/F
ENDPOINT_NAME: CL/F (mL/min/kg)

INSERT INTO measurements (structure_smiles, endpoint_name, assay_value) VALUES
  ('CCS(=O)(=O)c1ccc([C@H](CO)NC(=O)c2ccc3c(c2)cc(Cc2ccc(Cl)cc2C(F)(F)F)n3CCF)cc1', 'CL/F', 0.66);

* * *

- PROCEDURE_SUMMARY: Pharmacokinetics assay in mice after intragastrical administration
- Format: in vivo
- CONDITION_INFO: female, C57, mouse, plasma, po, 2 mg/kg, read-out: Apparent distribution volume Vz/F
ENDPOINT_NAME: Vd/F (L/kg)

INSERT INTO measurements (structure_smiles, endpoint_name, assay_value) VALUES
  ('CCS(=O)(=O)c1ccc([C@H](CO)NC(=O)c2ccc3c(c2)cc(Cc2ccc(Cl)cc2C(F)(F)F)n3CCF)cc1', 'Vd/F', 0.637);
